Data origin, for the record: ChEMBL document CHEMBL1201862

Test system: HOP-92
assay notes: NCI tumour cell line growth inhibition, 48 h
The source made the active and inactive calls. Cut-off read from the data, not from the text of the source: active = GI50 up to about 1.1 µM and inactive = higher.
measured attribute: GI50

QUERY: Could you share which GI50 value was measured for CCCN(CCCCC(NC(C)=O)C(=O)NCc1ccccc1)C(=O)NCCCl (stereo unspecified) ?
RESULT: > 100 µM (inactive)

QUERY: Could you tell me which GI50 is on file for O=C(Cc1ccc(Cl)c(Cl)c1)NCCCN1CCN(CCCN2CCCCC2)CC1 ?
RESULT: 11.1 µM (inactive)

Next:
QUERY: // returns reported GI50 for input COC1(O)c2cccc(Cl)c2C(=O)N1C1(C(N)=O)CCCCC1 (stereo unspecified)
RESULT: 24.4 µM (inactive)

QUERY: Return reported GI50; argument: N#CCN1CCCCCc2ccccc21
RESULT: > 100 µM (inactive)

QUERY: For the compound shown here, O=C1[C@H]2ON(c3ccccc3)C(c3ccccc3F)[C@H]2C(=O)N1c1ccc(Cc2ccc(N3C(=O)[C@@H]4ON(c5ccccc5)C(c5ccccc5F)[C@@H]4C3=O)cc2)cc1 (stereo partly specified) , give the reported GI50.
RESULT: 21.5 µM (inactive)

QUERY: What does the data say about its GI50? Entry: O=[N+]([O-])C(C(Cl)=C(Cl)Cl)=C(N(Cc1ccccc1)Cc1ccccc1)N(Cc1ccccc1)Cc1ccccc1
RESULT: 15.6 µM (inactive)

QUERY: Which GI50 is listed for CCOC(=O)/C=C/c1ccccn1 ?
RESULT: > 100 µM (inactive)

QUERY: Can you look up the measured GI50 of CCOC(=S)SC/C(=N\OC(C)(C)OC)c1ccccc1 for me?
RESULT: 20.7 µM (inactive)

QUERY: # get_value(readout='GI50', item= Clc1ccc(C2=NOC(C3CCCCC3)C2)cc1 (stereo unspecified) )
RESULT: > 100 µM (inactive)

QUERY: Suppose we examine the compound Oc1c(CN2CCN(c3ccccc3)CC2)cc(Br)c2cccnc12 ; what GI50 value has been reported?
RESULT: 2.2 µM (inactive)

QUERY: Param item = C=C=C(Sc1ccccc1)C(C)(C)OC(C)=O ; retrieve measured GI50.
RESULT: 15.8 µM (inactive)

###

System: HT-29
assay notes: NCI tumour cell line growth inhibition, 48 h
Calls of active or inactive are those of the source. Rule as the data show it: active = GI50 up to about 1.1 µM and inactive = higher.
Some molecules, each annotated with its measured GI50.

The cases that follow already have their GI50 on record.
QUERY: Find the recorded GI50 belonging to CC(=O)c1ccc(NC(=O)/C(CC(=O)/C=C/c2ccccc2)=N/NC(N)=S)cc1 and report it.
RESULT: 41.5 µM (inactive)

QUERY: Which measured GI50 value corresponds to CC(=O)N(N=O)c1ccc(N(N=O)C(C)=O)cc1 ?
RESULT: > 100 µM (inactive)

QUERY: What value of measured GI50 is listed for O=C1c2ccncc2C(=O)c2c(O)ccc(O)c21 ?
RESULT: 3.07 µM (inactive)

QUERY: # GI50 lookup, item COc1cc(C(=O)CC2OC(=O)C(Cl)=C2Cl)ccc1Cl (configuration not stated)
RESULT: > 100 µM (inactive)

QUERY: Quick one: GI50 for NC1=NC(c2ccc(Cl)cc2)N(c2ccc(S(=O)(=O)Nc3ncccn3)cc2)C(N)=N1 (configuration not stated) ?
RESULT: > 100 µM (inactive)

QUERY: I'd like to know its GI50. The molecule in question is NC(=S)N/N=C1/C(=O)N(c2ccccc2)C(=O)C1C(=O)Nc1ccccc1 (configuration not stated)
RESULT: > 100 µM (inactive)

QUERY: Query: GI50; subject: O=C1CC(S(=O)(=O)O)C=C1Nc1cccc(Cl)c1 (configuration not stated)
RESULT: > 100 µM (inactive)

QUERY: Given the molecule CC1(C)OC2C(COC(c3ccccc3)(c3ccccc3)c3ccccc3)OC(c3c[nH]c4c(N)ncnc34)C2O1 (configuration not stated) , what is its reported GI50?
RESULT: 2.56 µM (inactive)

Others:
QUERY: Record request: GI50 value, item Cc1cc(C)nc(NC(=O)c2ccc(Br)s2)c1
RESULT: > 100 µM (inactive)

QUERY: I'd like to know its GI50. The molecule in question is O=C1CCCC/C1=C/C=C/c1ccccc1
RESULT: 49.3 µM (inactive)

QUERY: Can you share its GI50? I mean this molecule: Nc1cccc2cc(S(=O)(=O)Nc3ccc(C(=O)O)cc3)ccc12
RESULT: > 100 µM (inactive)

###

Overview of reported GI50 across a group of compounds:
System: HT-29
assay notes: NCI tumour cell line growth inhibition, 48 h
Calls of active or inactive are those of the source. No stated cut-off is given here; in the data, active = GI50 up to about 1.1 µM and inactive = higher.

As a guide, the following entries are already answered.
QUERY: Could you tell me which GI50 is on file for COCCCN1C(=O)C2c3[nH]c4ccccc4c3C3CCC(C(C)(C)C)CC3C2C1=O (stereo not given) ?
RESULT: 15.3 µM (inactive)

QUERY: For O=C1N=C2SC(=S)N=C(S)N2NC12c1ccccc1-c1ccccc12 , what is its reported GI50?
RESULT: 7.01 µM (inactive)

QUERY: Please give the measured GI50 for this compound: O=C(CCc1ccc(O)cc1)NCCc1cccc(O)c1
RESULT: > 50 µM (inactive)

QUERY: So what does the record say about GI50 for CCOC(=O)c1cc2c(C(=O)c3ccc([N+](=O)[O-])cc3)c(C(C)=O)ccc2[nH]1 ?
RESULT: > 100 µM (inactive)

Next:
QUERY: // GI50 lookup, key: C=CCC(CNC(=O)OCc1ccccc1)OC(=O)OCc1ccccc1 (stereo not given)
RESULT: 36.3 µM (inactive)

###

System: TK-10
assay notes: NCI tumour cell line growth inhibition, 48 h
Activity calls are given as the source filed them. Cut-off read from the data, not from the text of the source: active = GI50 up to about 1.1 µM and inactive = higher.
measured attribute: GI50

QUERY: Query GI50 on TK-10 for COC(=O)[C@H](C)N1C(=O)N[C@@H](C(C)C)C1=O
RESULT: > 100 µM (inactive)

Others:
QUERY: Kindly state the measured GI50 obtained for CC(=O)CCNc1ccc(-c2cc(-c3ccc(N(C)C)cc3)nc3ccc4ccccc4c23)cc1 with TK-10.
RESULT: > 100 µM (inactive)

###

System: NCI-H23
assay notes: NCI tumour cell line growth inhibition, 48 h
Activity calls are given as the source filed them. Rule as the data show it: active = GI50 up to about 1.1 µM and inactive = higher.
Please answer using one outcome listed in class 1 (active), class 0 (inactive)

Here's what some known entries look like.
QUERY: Status in this test for O=C1/C(=N\n2c(S)nnc2-c2ccncc2)c2cc(Cl)ccc2N1CN1CCCCC1 ?
RESULT: class 0

QUERY: Record lookup: outcome of this test for CC1CCC2C(C)(C)CC3(C)CCC1C23O (configuration not stated) ?
RESULT: class 0

QUERY: Assay result, entry CCOC(=O)CC(=O)C(=O)NN=C1NCCCN1 — outcome?
RESULT: class 0

QUERY: Short answer needed: outcome of this test for CC(=O)NNc1nc(C)c(C(=O)/C=C/c2ccc(N(C)C)cc2)s1 ?
RESULT: class 0

QUERY: How did this test come out for O=C1CCc2nc3ncccc3cc2C1 ?
RESULT: class 0

QUERY: How did this test come out for COC12CCCN1c1ccn(Cc3ccccc3)c(=O)c1C2=O (configuration not stated) ?
RESULT: class 0

Please look at the following molecule next.
QUERY: So what was the verdict on C[C@H]1O[C@@H](O[C@H]2[C@@H](O)C[C@H](O[C@H]3[C@@H](O)C[C@H](O[C@H]4CC[C@@]5(C)[C@H](CC[C@@H]6[C@@H]5CC[C@]5(C)[C@@H](C7=CC(=O)OC7)[C@@H](O)C[C@]65O)C4)O[C@@H]3C)O[C@@H]2C)C[C@H](O)[C@@H]1O [GITOXIN] in this test?
RESULT: class 1

###

Test system: DLD-1
assay notes: NCI tumour cell line growth inhibition, 48 h
Calls of active or inactive are those of the source. Cut-off read from the data, not from the text of the source: active = GI50 up to about 1.1 µM and inactive = higher.
GI50 for assorted compounds

A selection of reference data follows.
QUERY: What GI50 value was documented for this compound, C#CC[N+](C)(CC#C)CC#C ?
RESULT: > 100 µM (inactive)

QUERY: # GI50 lookup, item CC1SC2=NC3=C(c4ccccc4C3=O)C(c3ccccc3Cl)N2C1=O (centres undefined)
RESULT: > 100 µM (inactive)

QUERY: // query GI50 value for entry COc1cc2cc3c4c(cc(OC)c(OC)c4c2cc1OC)CCN3C(=O)CCC(=O)NCCCN(C)C
RESULT: 16.9 µM (inactive)

QUERY: // query GI50 value for entry CC(C)OP(=O)(OC(C)C)/C(F)=N/Nc1ccc([N+](=O)[O-])cc1
RESULT: > 100 µM (inactive)

QUERY: Query: GI50; subject: CN(Cc1ccccc1)c1nc(=[N+](C)C)ss1
RESULT: > 100 µM (inactive)

***
QUERY: For the compound shown here, CN/N=C(/CCN1CCCC1)CC(c1ccccc1)c1c(O)c2ccccc2oc1=O (centres undefined) , give the reported GI50.
RESULT: > 100 µM (inactive)

QUERY: Which value of GI50 has been reported for C/C(CC(=O)CCC(=O)Nc1cccc(C(F)(F)F)c1)=N\NC(=O)NN in the records?
RESULT: > 100 µM (inactive)

QUERY: Give its GI50 value. Item: CNC(=O)N(CCCCC(NC(C)=O)C(=O)NCc1ccccc1)Cc1ccccc1 (centres undefined)
RESULT: > 100 µM (inactive)

QUERY: Given CN(C)NC(=S)NC12CC3CC(CC(C3)C1)C2 , state its recorded GI50.
RESULT: > 100 µM (inactive)

QUERY: I am curious: what GI50 value has been reported for C=C(c1ccccc1)[C@@]1(O)CC[C@@H]1N(CC#N)Cc1ccccc1 ?
RESULT: 19.6 µM (inactive)

QUERY: Need GI50 of O=C(O)C1CC2C=CCC(C2)C1 (centres undefined) , thanks.
RESULT: > 100 µM (inactive)

QUERY: Item CCOC(=O)C(C[Si](C)(C)C)P(=O)(OCC)OCC (centres undefined) has what recorded GI50?
RESULT: > 100 µM (inactive)

QUERY: Value lookup for GI50; key = O=C1CCCC/C1=C/C=C/c1ccccc1
RESULT: 46.9 µM (inactive)

QUERY: GI50 lookup needed for COC1(O)c2cccc(Cl)c2C(=O)N1C1(C(N)=O)CCCCC1 (centres undefined) , thanks.
RESULT: > 100 µM (inactive)

QUERY: So what does the record say about GI50 for O=[N+]([O-])CCc1cccc([N+](=O)[O-])c1 ?
RESULT: > 100 µM (inactive)

QUERY: Requested read-out: GI50. Entry: O=C1CCCc2c(O)ccc(O)c21
RESULT: > 100 µM (inactive)

QUERY: Report GI50 for O=C(O)/C(O)=C1/C=C(c2ccccc2)c2ccccc21 please.
RESULT: 30.1 µM (inactive)

QUERY: Can you look up the measured GI50 of O=S(=O)(/C=C/CS(=O)(=O)c1ccccc1)c1ccccc1 for me?
RESULT: 23.6 µM (inactive)
